test system: C. albicans Wisc.; assay: In vitro antifungal activity, MIC (modified Autotiter method); type: cell-based, Candida albicans; conditions: Candida albicans, 20 h, 18-20 hours at 37° C.; read-out: MIC C. albicans Wisc.
READOUT_TYPE: MIC (µg/mL)
One number for each entry, in µg/mL.

Solved cases below.
INSERT INTO results (compound, system_under_test, readout_type, unit, recorded_result) VALUES
  ('CCCCC(CC)CNc1cc[n+](CCCCCCCC[n+]2ccc(NCC(CC)CCCC)cc2)cc1 (centres unmarked)', 'C. albicans Wisc.', 'MIC', 'µg/mL', 3.9),
  ('CCCCCCNc1cc[n+](CCCCCCCCC[n+]2ccc(NCCCCCC)cc2)cc1', 'C. albicans Wisc.', 'MIC', 'µg/mL', 3.9),
  ('CCCCCCCCCNc1cc[n+](CCCCCC[n+]2ccc(NCCCCCCCCC)cc2)cc1', 'C. albicans Wisc.', 'MIC', 'µg/mL', 1.95),
  ('CCCCCCCCCCNc1cc[n+](CCCCCCCCCC[n+]2ccc(NCCCCCCCCCC)cc2)cc1', 'C. albicans Wisc.', 'MIC', 'µg/mL', 15.6),
  ('CCCCCCCCCCCCNc1cc[n+](CCCCCCCCC[n+]2ccc(NCCCCCCCCCCCC)cc2)cc1', 'C. albicans Wisc.', 'MIC', 'µg/mL', 31.3),
  ('Fc1ccc(Nc2cc[n+](CCCCCC[n+]3ccc(Nc4ccc(F)cc4)cc3)cc2)cc1 [Example 83B]', 'C. albicans Wisc.', 'MIC', 'µg/mL', 31.3),
  ('CCCCCCCNc1cc[n+](CCCCCCCCCCCC[n+]2ccc(NCCCCCCC)cc2)cc1', 'C. albicans Wisc.', 'MIC', 'µg/mL', 3.13);

Pending compound:
Entry CCCCCCCCCCNc1cc[n+](CCCCCC[n+]2ccc(NCCCCCCCCCC)cc2)cc1 [Example 64B] under C. albicans Wisc. had MIC of 3.9
